- target.of.assay: T1, full-length untagged human GPNMB expressed on cells (human, UniProt Q14956 23-572)
- T1 sequence: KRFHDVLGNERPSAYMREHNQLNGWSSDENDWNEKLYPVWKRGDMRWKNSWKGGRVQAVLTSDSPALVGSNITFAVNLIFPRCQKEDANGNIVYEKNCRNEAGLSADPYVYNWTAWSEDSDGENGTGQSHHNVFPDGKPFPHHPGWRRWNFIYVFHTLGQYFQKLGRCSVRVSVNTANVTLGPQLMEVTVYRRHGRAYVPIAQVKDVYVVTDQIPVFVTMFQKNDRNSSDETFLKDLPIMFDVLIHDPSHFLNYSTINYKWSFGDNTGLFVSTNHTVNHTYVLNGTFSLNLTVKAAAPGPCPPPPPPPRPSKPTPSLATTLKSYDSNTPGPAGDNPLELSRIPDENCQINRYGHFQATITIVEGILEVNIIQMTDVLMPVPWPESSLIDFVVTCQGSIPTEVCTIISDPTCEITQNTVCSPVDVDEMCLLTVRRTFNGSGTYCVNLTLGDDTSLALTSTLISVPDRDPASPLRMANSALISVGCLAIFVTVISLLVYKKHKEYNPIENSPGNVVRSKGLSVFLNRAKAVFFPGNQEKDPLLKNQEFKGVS
- test.details: cell-based or functional assay
assay.endpoint: CD80 (FoB)
Express it in FoB; write the number only.

Example results:
[[record]]
binder = "anti-GPNMB antibody GPN-08 (antibody, human IgG1, V domains shown, chimeric) VH: QVQLQQPGAELVKPGASVKLSCRASGYTFTSYWLHWVKQRPGQGLEWIGEINPSDGRTNYIEKVKTKATLTVDKSSSTAYMQLSSLTSEDSAVYYCARSGGNYAWFAYWGQGTLVTVSA VL: DIVMTQSHKFMSTSVGDRVSITCKASQDVSPSVAWYQQRPGQSPKLLIYSASYRYTGVPDRFTGSGSGTDFTFTISSVQAEDLAVYYCQQHYSIPLTFGAGTKLELK"
unit_info = "FoB"
assay_value = 1.29

[[record]]
binder = "anti-GPNMB antibody GPN-35 (antibody, human IgG1, V domains shown, chimeric) VH: EVQLVESGGGSVRPGRSLKLSCAAAGFTFSDYYMTWVRQAPTKGLEWVASINHDGGGTYYRDSVKGRFTISRDNARSSLYLQMDSLRSEDTGTYYCTTRAGWHWGQGVMVTVSS VL: DIQMTQSPASLSASLGETVSIECLASEDIYNYLTWYQQKPGKSPQVLIYSASGLQDGVPSRFSGSGSGRQYSLKINGLESEDAATYFCLQDSEYPLTFGSGTKLEIK"
unit_info = "FoB"
assay_value = 1.22


Now consider the entry below.
What value of CD80 (FoB) has been recorded for this entry: anti-GPNMB antibody GPN-06 (antibody, human IgG1, V domains shown, chimeric) VH: QVQLQQSGAELVKPGASVKLSCKASGYTFTNYYMYWVKQRPGQGLEWIGEINTRNGGTNFNEKFKSKATLTVDKSSSTAYMQLSSLTSEDSAVYYCTTGFAYWGQGTLVTVSA VL: DIQMTQSPASLSASVGETVTITCRASENIYSYLVWYQQNQGKSPQLLVYNAKTLAEGVPSRFSGSGSGTQFSLKINSLQPEDFGTYYCQHHYGTPFTFGSGTKLEIK 1.38
